Data provenance is patent US20260069689A1.

Measured target: T1, SARS-CoV2 Spike ecto foldon Trimer expressed with a C-terminal myc-myc-hexahistidine (SARS-CoV-2, UniProt P0DTC2 14-1213)
T1 construct: extracellular domain
Protocol notes: SPR Biacore, mAb captured by anti-hFc, 25C
Quantity kind: koff (s⁻¹)

1) mAb15160 (antibody, V domains shown) VH: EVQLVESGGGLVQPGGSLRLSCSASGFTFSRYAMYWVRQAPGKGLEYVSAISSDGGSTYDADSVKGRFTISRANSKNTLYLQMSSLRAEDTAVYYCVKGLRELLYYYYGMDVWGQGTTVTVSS VL: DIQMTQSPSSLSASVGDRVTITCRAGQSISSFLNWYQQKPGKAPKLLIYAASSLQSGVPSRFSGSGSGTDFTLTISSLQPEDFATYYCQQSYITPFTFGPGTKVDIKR ... 3.1e-05
2) mAb14235 (antibody, V domains shown) VH: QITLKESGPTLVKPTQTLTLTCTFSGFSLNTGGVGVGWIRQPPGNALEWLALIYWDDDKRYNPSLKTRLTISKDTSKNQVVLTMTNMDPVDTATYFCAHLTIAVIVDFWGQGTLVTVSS VL: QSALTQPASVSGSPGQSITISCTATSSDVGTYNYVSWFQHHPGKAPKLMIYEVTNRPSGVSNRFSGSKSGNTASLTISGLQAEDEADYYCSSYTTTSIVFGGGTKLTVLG ... 3.69e-05
3) mAb14247 (antibody, V domains shown) VH: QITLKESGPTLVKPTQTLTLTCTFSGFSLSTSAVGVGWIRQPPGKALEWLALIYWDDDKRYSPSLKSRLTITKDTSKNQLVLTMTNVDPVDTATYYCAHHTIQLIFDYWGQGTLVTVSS VL: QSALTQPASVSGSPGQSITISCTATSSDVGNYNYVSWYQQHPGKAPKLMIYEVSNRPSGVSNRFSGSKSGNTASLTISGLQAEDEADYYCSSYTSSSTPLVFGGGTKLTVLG ... 4.91e-05
4) mAb13458 (antibody, V domains shown) VH: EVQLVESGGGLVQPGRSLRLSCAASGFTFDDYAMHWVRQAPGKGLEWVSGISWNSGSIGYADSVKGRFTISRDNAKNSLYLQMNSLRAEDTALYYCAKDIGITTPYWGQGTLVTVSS VL: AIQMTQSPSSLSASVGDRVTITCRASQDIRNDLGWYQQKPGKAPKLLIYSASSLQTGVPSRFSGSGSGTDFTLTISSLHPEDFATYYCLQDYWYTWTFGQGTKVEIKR ... 4.26e-05
5) mAb14281 (antibody, V domains shown) VH: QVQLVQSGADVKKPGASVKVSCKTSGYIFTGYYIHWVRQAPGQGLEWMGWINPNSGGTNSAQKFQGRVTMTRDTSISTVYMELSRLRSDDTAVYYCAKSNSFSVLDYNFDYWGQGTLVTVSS VL: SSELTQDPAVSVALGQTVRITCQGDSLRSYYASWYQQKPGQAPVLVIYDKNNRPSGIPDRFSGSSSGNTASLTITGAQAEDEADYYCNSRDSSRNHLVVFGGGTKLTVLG ... 8.09e-05
